assay-system: human soluble ENPP1 (Homo sapiens, UniProt P22413)
Construct: 20 ng of human soluble ENPP1
Sequence (P22413 103-925 limits assumed): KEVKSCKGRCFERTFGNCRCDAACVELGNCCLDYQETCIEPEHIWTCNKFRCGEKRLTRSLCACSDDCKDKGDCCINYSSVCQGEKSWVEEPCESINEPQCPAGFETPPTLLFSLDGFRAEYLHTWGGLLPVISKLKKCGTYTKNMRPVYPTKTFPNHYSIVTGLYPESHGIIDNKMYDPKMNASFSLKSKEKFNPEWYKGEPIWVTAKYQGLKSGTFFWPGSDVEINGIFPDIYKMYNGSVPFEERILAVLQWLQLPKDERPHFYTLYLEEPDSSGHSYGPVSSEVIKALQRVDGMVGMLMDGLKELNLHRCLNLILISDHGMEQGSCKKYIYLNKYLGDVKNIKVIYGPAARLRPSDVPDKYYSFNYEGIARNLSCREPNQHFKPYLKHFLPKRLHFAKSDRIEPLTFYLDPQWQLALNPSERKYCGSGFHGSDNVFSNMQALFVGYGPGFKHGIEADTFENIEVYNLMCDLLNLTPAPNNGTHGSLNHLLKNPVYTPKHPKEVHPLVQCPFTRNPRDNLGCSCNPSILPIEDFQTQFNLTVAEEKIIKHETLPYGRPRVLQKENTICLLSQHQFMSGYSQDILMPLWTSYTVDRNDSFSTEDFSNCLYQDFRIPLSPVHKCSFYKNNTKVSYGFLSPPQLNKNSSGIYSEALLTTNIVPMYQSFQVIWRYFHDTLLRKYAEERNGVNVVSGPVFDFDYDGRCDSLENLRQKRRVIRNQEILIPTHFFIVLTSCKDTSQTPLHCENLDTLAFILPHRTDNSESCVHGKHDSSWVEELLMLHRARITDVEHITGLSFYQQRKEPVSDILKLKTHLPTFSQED
experiment-notes: ENPP1 activity assay using p-Nitrophenyl-5′-TMP as a substrate
Format: biochemical
pIC50: −log10 of the molar value.

compound: COc1ccc2c(ncc3nc(C4CC4)n(Cc4ccc(S(N)(=O)=O)cn4)c32)n1
assay-system: human soluble ENPP1 (Homo sapiens, UniProt P22413)
pIC50: 10.05
--
compound: COc1ccc2c(ncc3ncn(Cc4ccc(NS(N)(=O)=O)cc4)c32)n1
assay-system: human soluble ENPP1 (Homo sapiens, UniProt P22413)
pIC50: 8.28
--
compound: COc1cc2ncc3ncn([C@@H](C)c4ccc(S(N)(=O)=O)cc4)c3c2cc1OC [Compound 11b]
assay-system: human soluble ENPP1 (Homo sapiens, UniProt P22413)
pIC50: 6.71
--
compound: COc1ccc2c(ncc3[nH]c(=O)n(Cc4ccc(S(N)(=O)=O)cc4F)c32)n1
assay-system: human soluble ENPP1 (Homo sapiens, UniProt P22413)
pIC50: 9.29
--
compound: CNS(=O)(=O)c1cc(F)c(Cn2c(=O)[nH]c3cnc4nc(OC)ccc4c32)c(F)c1
assay-system: human soluble ENPP1 (Homo sapiens, UniProt P22413)
pIC50: 7.37
--
compound: COc1cc2ncc3ncn([C@H](C)c4ccc(S(N)(=O)=O)cc4)c3c2cc1OC [Compound 11a]
assay-system: human soluble ENPP1 (Homo sapiens, UniProt P22413)
pIC50: 9.06
--
compound: COc1ccc2c(ncc3nc(C4CCOCC4)n(Cc4ccc(S(N)(=O)=O)cn4)c32)n1
assay-system: human soluble ENPP1 (Homo sapiens, UniProt P22413)
pIC50: 9.62
--
compound: COc1ccc2c(ncc3[nH]c(=O)n(Cc4c(F)cc(S(=O)(=O)NC(C)=O)cc4F)c32)n1
assay-system: human soluble ENPP1 (Homo sapiens, UniProt P22413)
pIC50: 8.05

###

experiment-notes: Pharmacokinetics in mice
Type: in vivo
reported-conditions: mouse, plasma; male CD-1 mice; 1 mg/kg, iv; read-out: Vdss
metric-name: log10 Vd (log10 of the value in L/kg)

molecule: COc1ccc2c(ncc3ncn(Cc4ccc(S(N)(=O)=O)cn4)c32)n1
log10 Vd: 0.86

molecule: COc1ccc2c(ncc3nc(C)n(Cc4ccc(S(N)(=O)=O)cn4)c32)n1
log10 Vd: 0.46

molecule: COc1ccc2c(ncc3nc(C)n(Cc4ccc(S(N)(=O)=O)nc4)c32)n1
log10 Vd: 0.20

molecule: COc1ccc2c(ncc3[nH]c(=O)n(Cc4ccc(S(N)(=O)=O)cc4F)c32)n1
log10 Vd: 0.72

molecule: COc1ccc2c(ncc3nc(C)n(Cc4ccc(S(N)(=O)=O)cc4)c32)n1
log10 Vd: 0.23

molecule: COc1ccc2c(ncc3nnn(Cc4ccc(S(N)(=O)=O)c(F)c4)c32)n1
log10 Vd: 0.95

molecule: COc1ccc2c(ncc3ncn(Cc4ccc(S(N)(=O)=O)cc4F)c32)n1
log10 Vd: 1.59

molecule: COc1ccc2c(ncc3nc(C)n(Cc4ccc(S(N)(=O)=O)c(F)c4)c32)n1
log10 Vd: 0.45

molecule: COc1ccc2c(ncc3cnn(Cc4ccc(S(N)(=O)=O)c(F)c4)c32)n1 [Compound 122a]
log10 Vd: 0.30

molecule: COc1ccc2c(ncc3ncn(Cc4ccc(S(N)(=O)=O)c(F)c4)c32)n1
log10 Vd: 0.65

molecule: COc1ccc2c(ncc3ncn(Cc4ccc(S(N)(=O)=O)cc4)c32)n1
log10 Vd: 0.49

molecule: COc1ccc2c(ncc3nc(C)n(Cc4cc(F)c(S(N)(=O)=O)cc4F)c32)n1
log10 Vd: 0.63

molecule: COc1ccc2c(ncc3nc(CN4CCOCC4)n(Cc4ccc(S(N)(=O)=O)c(F)c4)c32)n1
log10 Vd: 0.00

molecule: COc1ccc2c(ncc3[nH]c(=O)n(Cc4ccc(S(N)(=O)=O)cc4)c32)n1
log10 Vd: 0.52

molecule: COc1ccc2c(ncc3ncn([C@H](C)c4ccc(S(N)(=O)=O)cn4)c32)n1
log10 Vd: 1.04

molecule: COc1ccc2c(ncc3ncn(CC4CN(S(N)(=O)=O)C4)c32)n1
log10 Vd: 0.04

molecule: COc1ccc2c(ncc3nc(C4CC4)n(Cc4ccc(S(N)(=O)=O)cn4)c32)n1
log10 Vd: 1.15

###

experiment-notes: Liver microsome stability, mouse
Assay type: in vitro ADME
reported-conditions: liver microsomes; Mouse liver microsome 0.5 mg/mL; NADPH and UDPGA; 37° C.; read-out: Half-life t1/2
Here the recorded half-life is given for each entry.

molecule: COc1cc2ncc3ncn([C@H](C)c4ccc(S(N)(=O)=O)cc4)c3c2cc1OC [Compound 11a]
endpoint-unit: min
half-life: 11
//
molecule: COc1cc2ncc3ncn(Cc4ccc(S(N)(=O)=O)cn4)c3c2cc1OC
endpoint-unit: min
half-life: 237
//
molecule: COc1ccc2ncc3ncn(Cc4ccc(S(N)(=O)=O)cc4)c3c2c1
endpoint-unit: min
half-life: 49

###

assay-system: human soluble ENPP1 (Homo sapiens, UniProt P22413)
Construct: 20 ng of human soluble ENPP1
experiment-notes: ENPP1 activity assay using p-Nitrophenyl-5′-AMP as a substrate
Type: biochemical
pIC50: −log10 of the molar value.

compound: COc1ccc2c(ncc3c2n(Cc2c(F)cc(S(N)(=O)=O)cc2F)c(=O)n3C)n1 [Compound 114]
pIC50: 9.64

compound: COc1ccc2c(ncc3[nH]c(=O)n(CC4CC(OS(N)(=O)=O)C4)c32)n1 (centres unmarked) [Compound 97]
pIC50: 8.96

compound: COc1ccc2c(ncc3nnn(Cc4ccc(S(N)(=O)=O)c(F)c4)c32)n1 [Compound 120]
pIC50: 8.36

compound: COc1ccc2c(ncc3ncn(Cc4ccc(S(N)(=O)=O)c(C(F)(F)F)c4)c32)n1 [Compound 65]
pIC50: 8.06

compound: COC(=O)Cc1nc2cnc3nc(OC)ccc3c2n1Cc1ccc(S(N)(=O)=O)c(F)c1 [Compound 83]
pIC50: 8.11

compound: COc1ccc2c(ncc3ncn(Cc4c(F)cc(S(N)(=O)=O)cc4F)c32)n1 [Compound 129]
pIC50: 9.72

compound: COc1ccc2c(ncc3ncn(Cc4ccc(S(N)(=O)=O)c(F)c4)c32)n1 [Compound 61]
pIC50: 8.72

compound: COc1cnc2c(c1)ncc1ncn(Cc3ccc(S(N)(=O)=O)cc3)c12 [Compound 49]
pIC50: 8.32

###

assay-system: human soluble ENPP1 (Homo sapiens)
Construct: 20 ng of human soluble ENPP1
experiment-notes: ENPP1 activity assay using p-Nitrophenyl-5′-TMP as a substrate
Format: biochemical
reported-conditions: substrate TMP-pNP; 20 ng human soluble ENPP1; Tris buffer pH 9.5; read-out: TMP-pNP (IC50)
metric-name: IC50 (nM)

compound: COc1ccc2c(ncc3[nH]c(=O)n(Cc4ccc(S(N)(=O)=O)c(F)c4)c32)n1 [Compound 98]
metric-name: IC50
endpoint-unit: nM
recorded-measurement: 0.6
--
compound: COc1ccc2c(ncc3[nH]c(=O)n(Cc4ccc(S(N)(=O)=O)nc4)c32)n1 [Compound 96]
metric-name: IC50
endpoint-unit: nM
recorded-measurement: 1.7
--
compound: COc1ccc2c(n1)nc(C)c1[nH]c(=O)n(Cc3c(F)cc(S(N)(=O)=O)cc3F)c12 [Compound 113]
metric-name: IC50
endpoint-unit: nM
recorded-measurement: 1.1
--
compound: CCC(=O)NS(=O)(=O)c1cc(F)c(Cn2c(=O)[nH]c3cnc4nc(OC)ccc4c32)c(F)c1 [Compound 105]
metric-name: IC50
endpoint-unit: nM
recorded-measurement: 21
--
compound: COc1ccc2c(c1)nnc1[nH]c(=O)n(Cc3ccc(S(N)(=O)=O)cc3F)c12 [Compound 123]
metric-name: IC50
endpoint-unit: nM
recorded-measurement: 0.61
--
compound: COc1ccc2c(ncc3ncn(Cc4ccc(S(N)(=O)=O)cc4C(F)(F)F)c32)n1 [Compound 67]
metric-name: IC50
endpoint-unit: nM
recorded-measurement: 2.3
--
compound: COc1ccc2c(ncc3ncn(Cc4ccc(S(N)(=O)=O)cc4Br)c32)n1 [Compound 68]
metric-name: IC50
endpoint-unit: nM
recorded-measurement: 0.49
--
compound: COc1ccc2c(ncc3[nH]c(=O)n(Cc4c(F)cc(C(=O)NO)cc4F)c32)n1 [Compound 110]
metric-name: IC50
endpoint-unit: nM
recorded-measurement: 0.6
--
compound: COCCn1c(=O)n(Cc2c(F)cc(S(N)(=O)=O)cc2F)c2c3ccc(OC)nc3ncc21 [Compound 132]
metric-name: IC50
endpoint-unit: nM
recorded-measurement: 0.33
--
compound: COc1ccc2c(ncc3c2n(Cc2c(F)cc(S(N)(=O)=O)cc2F)c(=O)n3CC(F)(F)F)n1 [Compound 131]
metric-name: IC50
endpoint-unit: nM
recorded-measurement: 0.04
--
compound: COc1ccc2c(ncc3[nH]c(=O)n(Cc4c(F)cc(B(O)O)cc4F)c32)n1 [Compound 111]
metric-name: IC50
endpoint-unit: nM
recorded-measurement: 7.4
--
compound: COc1ccc2c(ncc3[nH]c(=O)n(Cc4ccc(S(N)(=O)=O)c(F)c4F)c32)n1 [Compound 95]
metric-name: IC50
endpoint-unit: nM
recorded-measurement: 1.4
--
compound: COc1ccc2c(n1)nc(C)c1nc(C)n(Cc3ncc(S(N)(=O)=O)cn3)c12 [Compound 91a]
metric-name: IC50
endpoint-unit: nM
recorded-measurement: 83
--
compound: COc1ccc2c(ncc3[nH]c(=O)n(Cc4c(F)cc(S(N)(=O)=O)c(F)c4F)c32)n1 [Compound 112]
metric-name: IC50
endpoint-unit: nM
recorded-measurement: 0.3
--
compound: COc1ccc2c(ncc3nc(C)n(Cc4c(F)cc(S(N)(=O)=O)cc4F)c32)n1 [Compound 130]
metric-name: IC50
endpoint-unit: nM
recorded-measurement: 0.16
--
compound: COc1ccc2c(ncc3c2n(Cc2c(F)cc(S(N)(=O)=O)cc2F)c(=O)n3CCO)n1 [Compound 115]
metric-name: IC50
endpoint-unit: nM
recorded-measurement: 0.11
--
compound: COc1ccc2c(ncc3nc(CC(N)=O)n(Cc4ccc(S(N)(=O)=O)c(F)c4)c32)n1 [Compound 84]
metric-name: IC50
endpoint-unit: nM
recorded-measurement: 3.5
--
compound: COc1ccc2c(ncc3nc(C)n(Cc4ccc(S(=O)(=O)NC(C)=O)c(F)c4)c32)n1 [Compound 76]
metric-name: IC50
endpoint-unit: nM
recorded-measurement: 13
